- STUDY_SYSTEM: STK10 (Homo sapiens, UniProt O94804)
- Construct: purchased in-house DSF panel (SGC Frankfurt)
- Sequence (O94804 18-317): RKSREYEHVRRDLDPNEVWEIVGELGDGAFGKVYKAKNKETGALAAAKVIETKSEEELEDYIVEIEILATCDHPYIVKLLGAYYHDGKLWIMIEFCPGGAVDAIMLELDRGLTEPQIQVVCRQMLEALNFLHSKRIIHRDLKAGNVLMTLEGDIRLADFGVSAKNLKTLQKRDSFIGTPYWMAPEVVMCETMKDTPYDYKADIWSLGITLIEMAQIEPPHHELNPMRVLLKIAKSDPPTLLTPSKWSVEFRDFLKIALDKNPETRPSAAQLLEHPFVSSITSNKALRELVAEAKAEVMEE
- TEST_DETAILS: DSF
- Format: binding
QUANTITY_KIND: ΔTm STK10 (°C)
The reply should contain only the number, in °C.

Worked examples, 5 compounds total:
COMPOUND: COC(=O)c1cc(Nc2ccnc(NCCOCCNC(=O)OC(C)(C)C)n2)[nH]n1 [21d]
UNIT_OF_MEASUREMENT: °C
ΔTm STK10: -0.7
--
COMPOUND: CC(C)(C)OC(=O)Nc1ccc(CNc2nccc(Nc3cc(C(=O)OC(C)(C)C)[nH]n3)n2)cc1 [43d]
UNIT_OF_MEASUREMENT: °C
ΔTm STK10: -0.8
--
COMPOUND: CC(C)OC(=O)c1cc(Nc2ccnc(NCc3ccc(NC(=O)OC(C)(C)C)cc3)n2)n[nH]1 [42d]
UNIT_OF_MEASUREMENT: °C
ΔTm STK10: -0.7
--
COMPOUND: N#CCc1ccc(Nc2nccc(Nc3cc(C4CC4)[nH]n3)n2)cc1 [compound 1, reference compound]
UNIT_OF_MEASUREMENT: °C
ΔTm STK10: 10.1
--
COMPOUND: CN[C@@H]1C[C@H]2O[C@@](C)([C@@H]1OC)n1c3ccccc3c3c4c(c5c6ccccc6n2c5c31)C(=O)NC4 [staurosporine, reference compound]
UNIT_OF_MEASUREMENT: °C
ΔTm STK10: 23.3

stdin: Record COC(=O)c1cc(Nc2ccnc(NCc3ccc(NC(=O)OC(C)(C)C)cc3)n2)[nH]n1 [21i] : what is its ΔTm STK10 with STK10 (Homo sapiens, UniProt O94804)?
stdout: -0.7
